Each recorded value in this set is attributed to PubChem BioAssay (NCI).

system: HT29 colon; test: NCI tumour cell line growth inhibition, 48 h
endpoint_label: TGI

COC(=O)CNC(=O)c1cc(C)cc2c1Oc1c(cc(C)cc1C(=O)NCC(=O)OC)S2 : > 100 µM
O=C1c2ccccc2C(=O)N1C/C=N/NS(=O)(=O)c1ccc2ccccc2c1 : > 100 µM
COc1ccc(Nc2nc3cc(C(F)(F)F)ccc3nc2C(=O)O)cc1OC : > 100 µM
Cc1ccc(S(=O)(=O)O/N=C2\CCC\C2=C/c2ccccc2)cc1 : 60.1 µM
CC(C)=CC(=O)OCC(=O)O[C@@H]1C[C@]2(C(C)C)O[C@@]1(C)[C@@H]1CC[C@@H](C)[C@H]1[C@@H]2OC(=O)/C=C/c1ccccc1 : > 100 µM

Below are some compounds; for each one, tell me its TGI.
1. CCOC(=O)[C@@H]1C2C(=C[C@H]3[C@H]1C(=O)N1CCCC[C@H]31)CCCN2C(=O)OCc1ccccc1 (stereo not given in full)
2. CNC(=O)CCC(NC(=O)OC(C)(C)C)C(=O)NC(Cc1ccc(NC(=O)CCCCC(C)=O)cc1)C(=O)NCC(=O)NC (stereo not given)
3. CN(C)c1ccc(-c2[nH]c(=O)c3ccccc3[n+]2C)cc1

**A:**
["> 100 µM", "> 100 µM", "> 100 µM"]

----------
test system: BT-549 breast; experiment: NCI tumour cell line growth inhibition, 48 h; in the data active = GI50 below about 0.43 µM; inactive = the rest
Outcome field: choose from active, inactive

These recorded examples may help you get a feel for the data.
Ic1ccc2[nH]cc(SSc3c[nH]c4ccc(I)cc34)c2c1 : inactive
CCN(CC)c1ccc(N=O)cc1 : inactive
CCN1CCN(c2cc(C)nc(N(CCCNc3ccnc4cc(Cl)ccc34)Cc3cccs3)n2)CC1 : inactive
COc1cc(/C=C2\CC3C4CCC5=CC(=O)CC[C@]5(C)C4CC[C@]3(C)C2=O)ccc1OCCCn1ccnc1 (stereo partly specified) : inactive
Nc1ccc2c(c1)Cc1cc(Cl)c(Cl)cc1-2 : inactive

**Q:** In this assay, the call recorded for COc1ccc(C2=C(c3cn(C)c4ccccc34)C(=O)NC2=O)cc1 was what?
**A:** inactive

**Q:** In this assay, the call recorded for O=c1c2cc(I)ccc2nc(-c2cccs2)n1-c1ccc(S(=O)(=O)Nc2nccs2)cc1 was what?
**A:** inactive

**Q:** In this assay, the call recorded for CC(=O)Nc1ccc(-c2csc(Nc3ccc(-c4csc(-c5ccccc5)n4)cc3)n2)cc1 was what?
**A:** inactive

----------
Exercise: for every item that follows, state its recorded TGI.
test system: OVCAR-5 ovarian; experiment: NCI tumour cell line growth inhibition, 48 h

O=C1CCCn2c(nc3ccccc32)N1 : > 100 µM

Below are some compounds; for each one, tell me its TGI.
1. Nc1ncnc2oc(-c3cccs3)nc12
2. NC(=O)NN=C1C[C@H]2CCCC[C@H]2C1
3. COc1cc(/C=C2\CC3C4CCC5=CC(=O)CC[C@]5(C)C4CC[C@]3(C)C2=O)ccc1OCCCn1ccnc1 (stereo partly specified)
4. CCCCC/C=C\C=C1\C(=O)C=C[C@@H]1C/C=C\CCCC(=O)O
5. C=C(C)[C@@H]1CC[C@]2(CNCCO)CC[C@]3(C)[C@H](CC[C@@H]4[C@@]5(C)CCC(N)[C@@](C)(CO)[C@@H]5CC[C@]43C)[C@@H]12 (stereo partly specified)
6. COc1cc(C(=O)/C=C/c2c(-c3cccs3)nc3sc(C)cn23)cc(OC)c1OC
7. C[C@]12CCC3c4ccc(O)cc4CC[C@H]3C1CC(=O)N(CCN1CCCC1)C2=O (stereo partly specified)
8. Cc1ccc2nc(C=Nc3ccccc3Cl)cc(C)c2c1

**A:**
1: > 100 µM; 2: > 100 µM; 3: 37.9 µM; 4: 9.72 µM; 5: 4.79 µM; 6: > 100 µM; 7: > 10 µM; 8: > 100 µM

Below are some compounds; for each one, tell me its TGI.
1. Cc1cccc(NC(=O)c2sc3nc4c(cc3c2N)CCCC4)c1
2. OC(Cc1cccnc1)(c1ccccc1)c1ccccc1

**A:**
> 100 µM
> 100 µM
